Assay target: Syk catalytic domain (aa 356-635 with a C-terminal His-tag) (Homo sapiens, UniProt P43405)
Construct: His-tag (C); made in house
Assay text: In vitro Syk kinase activity measured by trFRET, Syk catalytic domain
Format: biochemical
Condition info: Syk catalytic domain (aa 356-635), trFRET, 0.001 mM ATP
pIC50: −log10 of the molar value.
Result type: pIC50

CS(=O)(=O)c1cccc(-c2cc3c(ncc4cnc(C(F)(F)F)n43)[nH]2)c1 [M.1.2]: 6.00 to 7.00
Cn1cc(-c2cc3c(ncc4cnn(C)c43)[nH]2)c2cc(OCCN3CCOCC3)ccc21 [N.1.112]: > 7.00
CCc1c[nH]c2ncc3c(-c4ccc(C(C)(C)O)cc4)nn(C)c3c12 [N.1.60]: 5.00 to 6.00
COc1ccc(-c2nc(C)n3c2cnc2[nH]ccc23)cc1C(N)=O [J.1.7.4]: 6.00 to 7.00
Cn1ncc2cnc3[nH]c(-c4cccc(CN)c4)cc3c21 [T.3.1]: 5.00 to 6.00

*Q* Quote Syk catalytic domain (aa 356-635 with a C-terminal His-tag) (Homo sapiens, UniProt P43405) pIC50 for entry Cn1cc(-c2cc3c(ncc4cnn(C)c43)[nH]2)c2cnccc21 [N.1.100] .
*A* 6.00 to 7.00

*Q* Quote Syk catalytic domain (aa 356-635 with a C-terminal His-tag) (Homo sapiens, UniProt P43405) pIC50 for entry COc1ccc(-c2cc3c(ncc4nnc(C)n43)[nH]2)cc1 [M.1.19] .
*A* 5.00 to 6.00

*Q* Quote Syk catalytic domain (aa 356-635 with a C-terminal His-tag) (Homo sapiens, UniProt P43405) pIC50 for entry CCCNC(=O)c1cccc(-c2[nH]c3ncc4cnn(C)c4c3c2CC)c1 [N.1.39] .
*A* 5.00 to 6.00
